# assayedSystem: Dihydroorotate dehydrogenase (quinone), mitochondrial (Plasmodium falciparum (isolate 3D7))
# Sequence (Q08210 whole entry): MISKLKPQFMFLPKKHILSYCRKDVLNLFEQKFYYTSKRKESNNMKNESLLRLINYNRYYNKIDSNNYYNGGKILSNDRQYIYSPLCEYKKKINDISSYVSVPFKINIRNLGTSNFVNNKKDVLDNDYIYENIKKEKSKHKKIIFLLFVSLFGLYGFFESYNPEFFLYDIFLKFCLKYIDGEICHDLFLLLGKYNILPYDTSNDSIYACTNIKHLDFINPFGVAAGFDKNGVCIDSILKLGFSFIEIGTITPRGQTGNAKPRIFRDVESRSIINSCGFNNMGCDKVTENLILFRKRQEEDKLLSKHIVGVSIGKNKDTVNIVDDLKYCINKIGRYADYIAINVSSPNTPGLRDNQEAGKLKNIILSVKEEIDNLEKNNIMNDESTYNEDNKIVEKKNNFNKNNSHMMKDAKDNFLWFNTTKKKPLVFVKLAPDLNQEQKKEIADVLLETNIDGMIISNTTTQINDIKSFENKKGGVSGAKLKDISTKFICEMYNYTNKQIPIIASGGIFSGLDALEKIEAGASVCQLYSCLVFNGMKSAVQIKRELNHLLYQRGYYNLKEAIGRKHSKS
# protocolDetails: Inhibition of N-terminal His6-tagged recombinant Plasmodium falciparum DHODH (158 to 569 residues) N-terminally truncated soluble domain extracted from Escherichia coli phage resistant BL21-DE3 using CoQD/DHA/DCIP as substrates
Note to self: IC50 under 70 nM means yes, ties and anything higher get no.

[[record]]
smilesstructure = "CCn1cc(C2CC2)c2c(CN3CCC4(CCC4)CC3)n(C)nc2c1=O"
assignedlabel = "yes"

[[record]]
smilesstructure = "CCn1cc(C)c2c([C@H](O)c3ccc(C(F)(F)F)nc3)n(C)nc2c1=O"
assignedlabel = "no"

[[record]]
smilesstructure = "Cn1nc2c(=O)n(C3CC3)ccc2c1Cc1ccc(C(F)(F)F)nc1"
assignedlabel = "no"

[[record]]
smilesstructure = "Cn1nc2c(=O)n(CCC3CC3)ccc2c1Cc1ccc(C(F)(F)F)nc1"
assignedlabel = "no"

[[record]]
smilesstructure = "Cn1nc2c(=O)n(C)ccc2c1Cc1ccc(C(F)(F)F)nc1"
assignedlabel = "no"

[[record]]
smilesstructure = "CC(C)n1ccc2c(Cc3ccc(C(F)(F)F)nc3)n(C)nc2c1=O"
assignedlabel = "no"

[[record]]
smilesstructure = "CCn1cc(C2CC2)c2c(Cc3ccc(C(F)(F)F)c(C#N)c3)n(C)nc2c1=O"
assignedlabel = "yes"

[[record]]
smilesstructure = "CCn1cc(C)c2c([C@@H](N)c3ccc(C(F)(F)F)nc3)n(C)nc2c1=O"
assignedlabel = "no"

[[record]]
smilesstructure = "CCn1ccc2c(Cc3ccc(C(F)(F)F)nc3)n(C)nc2c1=O"
assignedlabel = "no"

[[record]]
smilesstructure = "CCn1cc(Cl)c2c(Cc3ccc(N4CCOCC4)nc3)n(C)nc2c1=O"
assignedlabel = "no"

[[record]]
smilesstructure = "Cn1nc2c(=O)n(C3CC3)ccc2c1Cc1ccc(C(F)(F)F)c(C#N)c1"
assignedlabel = "no"

[[record]]
smilesstructure = "CCn1cc(C2CC2)c2c(Cc3cnc(C(F)(F)F)c(OC)c3)n(C)nc2c1=O"
assignedlabel = "yes"

[[record]]
smilesstructure = "Cn1nc2c(=O)n(C3CC3)ncc2c1[C@](O)(c1ccc(C(F)(F)F)c(C#N)c1)C(F)(F)F"
assignedlabel = "yes"

[[record]]
smilesstructure = "Cn1nc2c(=O)n(C3CC3)ccc2c1[C@](O)(c1ccc(C(F)(F)F)c(C#N)c1)C1CC1"
assignedlabel = "yes"

[[record]]
smilesstructure = "CCn1cc(Cl)c2c(Cc3ccc(N4CCN(C)CC4)nc3)n(C)nc2c1=O"
assignedlabel = "no"

[[record]]
smilesstructure = "CC[C@@](N)(c1cnc(C(F)(F)F)c(Cl)c1)c1c2ncn(C3CC3)c(=O)c2nn1C"
assignedlabel = "yes"

[[record]]
smilesstructure = "CC[C@@](O)(c1ccc(C(F)(F)F)c(C#N)c1)c1c2ccn(C3CC3)c(=O)c2nn1C"
assignedlabel = "yes"

[[record]]
smilesstructure = "CC[C@](N)(c1cnc(C(F)(F)F)c(Cl)c1)c1c2ccn(C3CC3)c(=O)c2nn1C"
assignedlabel = "no"

[[record]]
smilesstructure = "Cn1nc2c(=O)n(C3CC3)cnc2c1[C@@](O)(c1cnc(C(F)(F)F)c(Cl)c1)C(F)(F)F"
assignedlabel = "no"

